experiment: qHTS assay to identify small molecule agonists of the constitutive androstane receptor (CAR) signaling pathway - cell viability counter screen (AID 1224836); conditions: HepG2-CYP2B6-hCAR viability, CellTiter-Fluor, 23 h, PK11195 added to every well; series mostly up to 92.4 µM; also: nearly all actives have a fitted effect of over 45% in size; also: potency is read from the fitted curve at half-maximal effect
Results filed as inconclusive are left out. Active and inactive are the calls of the source. Calls follow the shape of the dose curve; as a rule, active = well fitted cell-killing curve with a large enough effect in the repeat runs; inconclusive = weak or mixed curves, or effect the other way; inactive = flat fitted curve, though single readings scatter.

compound	Potency
CCN(CC)C(=O)c1cc(S(=O)(=O)Cc2ccccc2)c(N2CCC(c3ccccc3)CC2)cc1N(CC)CCN(C)C	21.4 µM (active)
CCc1oc2ccccc2c1C(=O)c1cc(I)c(O)c(I)c1	inactive
Cl[Si](Cl)(c1ccccc1)c1ccccc1	inactive
CC(C)NC[C@@H](O)COc1ccc(CC(N)=O)cc1	inactive
CCCCCCC1CCCC(=O)O1 (configuration not stated)	inactive
[Cu+]	inactive
Cc1cccc2cccnc12	inactive
CCCCNS(=O)(=O)c1ccc(C)cc1	inactive
Cc1c(F)c(N2CCNC(C)C2)cc2c1c(=O)c(C(=O)O)cn2C1CC1 (configuration not stated)	inactive
CCCCCc1ccc(Cl)cc1	inactive
O=C(Oc1ccccc1)Oc1ccccc1	inactive
COc1cc(S(=O)(=O)O)c(C)cc1N=Nc1c(O)ccc2cc(S(=O)(=O)O)ccc12	30.6 µM (active)

----------
biological target: Estrogen receptor (Homo sapiens) (UniProt P03372); assay: qHTS assay to identify small molecule antagonists of the estrogen receptor alpha (ER-alpha) signaling pathway using the BG1 cell line in the presence of 0.1 nM 17-beta-estradiol (AID 1259244); conditions: VM7Luc4E2 (BG1) ERE-luciferase, antagonist mode, 0.1 nM E2, 22 h; series mostly up to 92.4 µM; also: nearly all actives have a fitted effect of over 50% in size
Sequence (P03372 whole entry, looked up): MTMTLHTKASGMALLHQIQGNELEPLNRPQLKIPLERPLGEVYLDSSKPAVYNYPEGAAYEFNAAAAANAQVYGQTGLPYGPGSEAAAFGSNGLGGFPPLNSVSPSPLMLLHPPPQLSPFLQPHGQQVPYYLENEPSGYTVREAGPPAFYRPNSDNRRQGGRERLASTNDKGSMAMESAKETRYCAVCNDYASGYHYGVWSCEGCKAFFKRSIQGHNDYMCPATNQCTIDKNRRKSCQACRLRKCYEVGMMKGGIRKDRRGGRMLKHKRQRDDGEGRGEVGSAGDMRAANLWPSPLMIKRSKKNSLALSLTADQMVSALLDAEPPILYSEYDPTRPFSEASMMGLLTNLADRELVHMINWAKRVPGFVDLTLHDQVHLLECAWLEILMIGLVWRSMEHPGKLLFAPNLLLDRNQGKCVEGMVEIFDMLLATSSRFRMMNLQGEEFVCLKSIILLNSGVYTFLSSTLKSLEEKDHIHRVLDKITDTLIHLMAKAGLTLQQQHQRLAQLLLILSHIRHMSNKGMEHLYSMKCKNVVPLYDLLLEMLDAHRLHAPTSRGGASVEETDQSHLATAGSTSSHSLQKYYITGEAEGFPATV
Results filed as inconclusive are left out. Calls of active or inactive are those of the source. Calls follow the shape of the dose curve; as a rule, active = well fitted inhibition curve with a large enough effect in the repeat runs; inconclusive = weak or mixed curves; inactive = no such curve, though single readings can be large or run the other way.
Labels: Yes = active, No = inactive

compound	className
CCc1cccc(CC)c1NC(=O)CN(CC(=O)O)CC(=O)O	No
O=C1CCCCCCCCCCCCCCCO1	No
O=[N+]([O-])c1cccc(C(F)(F)F)c1	No
CN1CCN2c3ccccc3Cc3ccccc3C2C1 (stereo not given)	No
Cc1c(C)c2c(c(C)c1O)CC[C@@](C)(CCC[C@H](C)CCC[C@H](C)CCCC(C)C)O2	No
CCCCCc1ccc(Cl)cc1	No
CC(CO)Oc1ccccc1 (stereo not given)	No
CN(C)CCN1CCN(c2cccc(Cl)c2)C1=O	No
Cc1cc(C(C)(C)C)c(O)c(C)c1Cn1c(=O)n(Cc2c(C)cc(C(C)(C)C)c(O)c2C)c(=O)n(Cc2c(C)cc(C(C)(C)C)c(O)c2C)c1=O	No
O=S(=O)(O)c1ccc(Nc2nc(Nc3ccc(/C=C/c4ccc(Nc5nc(Nc6ccc(S(=O)(=O)O)cc6)nc(N(CCO)CCO)n5)cc4S(=O)(=O)O)c(S(=O)(=O)O)c3)nc(N(CCO)CCO)n2)cc1	No
CCCCCCCCCCOC(=O)c1ccccc1C(=O)OCCCCCCCC	No
Clc1nnc(Cl)c2ccccc12	No
Cc1cccc(C)c1NC(=O)c1ccc(N)cc1	No
C1CCC(SSC2CCCCC2)CC1	No
CC(C)(c1cc(Br)c(OCC(Br)CBr)c(Br)c1)c1cc(Br)c(OCC(Br)CBr)c(Br)c1 (stereo not given)	No
CCn1c2ccccc2c2cc([N+](=O)[O-])ccc21	No
CCN(CCN)c1cccc(C)c1	No
O=C(/C=C/c1ccccc1)OC/C=C/c1ccccc1	No
OC1CCC(C2CCCCC2)CC1 (stereo not given)	No
CCCCNS(=O)(=O)c1ccc(C)cc1	No
CCCCOC(=O)CO	No
O=C(O)c1cccc(C(F)(F)F)c1	No
Cl[Si](Cl)(c1ccccc1)c1ccccc1	No
CN(C)Cc1ccccc1O	No
O=C(c1ccc(O)c(O)c1)c1ccc(O)cc1O	Yes

----------
assay: Caspase-3/7 induction in HepG2 cells by small molecules, qHTS cell viability counter screen (AID 1346981); settings: CellTiter-Fluor fluorescence, 17 h; series mostly up to 92.4 µM; also: nearly all actives have a fitted effect of over 30% in size
Results filed as inconclusive are left out. Activity calls are given as the source filed them. Calls come from the whole dose curve; as a rule, active = well fitted cell-killing curve with a large enough effect in the repeat runs; inconclusive = weak or mixed curves, or effect the other way; inactive = flat fitted curve, though single readings scatter.
Possible outcomes: active, inactive

compound	className
CCCCCC(C)OC(=O)COc1ccc(Cl)c2cccnc12 (stereo unspecified)	inactive
C#C[C@]1(O)CC[C@H]2[C@@H]3[C@H](C)CC4=C(CCC(=O)C4)[C@H]3CC[C@@]21C	inactive
CCCNCCC	inactive
O=C(O)c1cc(=O)c2ccccc2o1	inactive
O=C(O)c1ccc2cc(C(=O)O)ccc2c1	inactive
CCC(C)n1ncn(-c2ccc(N3CCN(c4ccc(OC[C@H]5CO[C@](Cn6cncn6)(c6ccc(Cl)cc6Cl)O5)cc4)CC3)cc2)c1=O (stereo partly specified)	inactive
CC(=O)CC(=O)Nc1ccc(S(=O)(=O)O)cc1	inactive
CCCC(=O)OC(C)(C)Cc1ccccc1	inactive
C=C(C)C(=O)OCCCCCCCCCC	active
CC(C(=O)O)c1ccc2c(c1)[nH]c1ccc(Cl)cc12 (stereo unspecified)	inactive
O=C(O)[C@H](O)[C@@H](O)[C@H](O[C@@H]1O[C@H](CO)[C@H](O)[C@H](O)[C@H]1O)[C@H](O)CO	inactive
COC(C)=O	inactive
CCCC(=O)OCCc1ccccc1	inactive
CCCCCc1ccc(Cl)cc1	inactive
C1CCC(SSC2CCCCC2)CC1	inactive
Cc1ccc(N/N=c2\c(=O)cc/c(=N\Nc3ccc(S(=O)(=O)O)cc3)c2=O)c(C)c1	active

----------
assay: qHTS RealTime-Glo MT Cell Viability Assay in HEK293 cells - 24 hour (AID 1224886); conditions: RealTime-Glo luminescence; series mostly up to 76.8 µM; also: top concentration of the series differs between compounds; nearly all actives have a fitted effect of over 50% in size
Results filed as inconclusive are left out. Calls of active or inactive are those of the source. The call rests on the fitted dose curve; in most records, active means well fitted cell-killing curve with a large enough effect in the repeat runs; inconclusive means weak or mixed curves, or effect the other way; inactive means flat fitted curve, though single readings scatter.

smilesRecord	outcome
Nc1ccc(NCCO)c([N+](=O)[O-])c1	inactive
C=Cc1ccccc1C=C	inactive
CC(C)(C)C1CCC(=O)CC1	inactive

----------
assay: qHTS assay to identify small molecule antagonists of the androgen receptor (AR) signaling pathway using the MDA cell line in the presence of 0.5 nM R1881 - cell viability counter screen (AID 1259242); settings: MDA-kb2 viability, CellTiter-Fluor protease fluorescence, 16 h; series mostly up to 92.4 µM; also: nearly all actives have a fitted effect of over 45% in size
Results filed as inconclusive are left out. Active and inactive are the calls of the source. The call rests on the fitted dose curve; in most records, active means well fitted cell-killing curve with a large enough effect in the repeat runs; inconclusive means weak or mixed curves, or effect the other way; inactive means flat fitted curve, though single readings scatter.
metric: outcome

compound	metric	measuredValue
CCCC(=O)OCOC(=O)C1=C(C)NC(C)=C(C(=O)OC)C1c1cccc(Cl)c1Cl (stereo not given)	outcome	inactive
C=C(C)c1cccc(C(=C)C)c1	outcome	inactive
Fc1ccc(C(c2ccc(F)cc2)N2CCNCC2)cc1	outcome	inactive
CC(C)(c1cc(Br)c(OCC(Br)CBr)c(Br)c1)c1cc(Br)c(OCC(Br)CBr)c(Br)c1 (stereo not given)	outcome	inactive
CN(C)CCN1CCN(c2cccc(Cl)c2)C1=O	outcome	inactive

----------
assay: qHTS assay to identify aromatase inhibitors - cell viability counter screen (AID 743084); conditions: MCF-7 aro ERE viability, CellTiter-Fluor, 24 h; series mostly up to 70.3 µM;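 also: cells stimulated with testosterone during compound exposure; nearly all actives have a fitted effect of over 55% in size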
Inconclusive results are not listed. Active and inactive are the calls of the source. Calls come from the whole dose curve; as a rule, active = well fitted cell-killing curve with a large enough effect in the repeat runs; inconclusive = weak or mixed curves, or effect the other way; inactive = no such curve, though single readings can be large or run the other way.
Outcomes: t (active), f (inactive)

smilesRecord	className
Clc1ccnc(Cl)n1	f
Nc1ccc(Oc2ccc(Cl)cc2)cc1	f
O=C(O)CN(CCN(CC(=O)O)CC(=O)O)CC(=O)O	f
O=C(Nc1ccc2c(O)c(N=Nc3ccc(N=Nc4ccc(S(=O)(=O)O)cc4)cc3)c(S(=O)(=O)O)cc2c1)c1ccccc1	t
COC(=O)c1ccccc1OC	f
Oc1cc(Cl)cc(Cl)c1Cl	f
COCCOc1cc2cc(C(=O)NC3CCN(C(C)C)CC3)n(CC(=O)Nc3ccc(Cl)cn3)c2cn1	f
CC[N+](CC)(CC)CCOc1ccc(/C=C/c2ccccc2)cc1	f
CCCCCC/C=C\CCCCCCCC(=O)O	f
ClCCl	f
O=C(O)c1ccc2cc(C(=O)O)ccc2c1	f
Oc1ccccc1O	t
Nc1ccc(C(=O)O)c(O)c1	f
CC(C)NC[C@@H](O)COc1ccc(CC(N)=O)cc1	f
C#C[C@]1(OC(C)=O)CC[C@H]2[C@@H]3CCC4=C[C@@H](OC(C)=O)CC[C@@H]4[C@H]3CC[C@@]21C	f
COC(=O)c1ccccc1C	f
CC1=CCC(=C(C)C)CC1	f
CCCCCCCC	f

----------
test: qHTS assay to identify small molecule antagonists of the retinoid-related orphan receptor gamma (ROR-gamma) signaling pathway - cell viability counter screen (AID 1159520); conditions: Tet-on RORgamma CHO cells viability, ATP luminescence, 16 h; series mostly up to 92.4 µM; also: nearly all actives have a fitted effect of over 50% in size
Results filed as inconclusive are left out. Activity calls are given as the source filed them. Calls come from the whole dose curve; as a rule, active = well fitted cell-killing curve with a large enough effect in the repeat runs; inconclusive = weak or mixed curves, or effect the other way; inactive = no such curve, though single readings can be large or run the other way.
Possible outcomes: 1 (yes) for active, 0 (no) for inactive

smilesRecord	className
O=C(O)Cc1ccc2c(c1)C(=O)c1ccccc1CO2	0 (no)
Cc1cc(=O)oc2cc(O)cc(O)c12	0 (no)
CCCCCCCCCCCCCC[N+](C)(C)Cc1ccccc1	1 (yes)

----------
assay: qHTS assay to identify small molecule agonists of the vitamin D receptor (VDR) signaling pathway - cell viability counter screen (AID 743224); conditions: VDR-bla HEK293T viability, CellTiter-Glo luminescence, 16 h; series mostly up to 62.6 µM; also: nearly all actives have a fitted effect of over 50% in size
Results filed as inconclusive are left out. Activity calls are given as the source filed them. Calls come from the whole dose curve; as a rule, active = well fitted cell-killing curve with a large enough effect in the repeat runs; inconclusive = weak or mixed curves, or effect the other way; inactive = no such curve, though single readings can be large or run the other way.
Possible outcomes: TRUE = active, FALSE = inactive

smilesRecord	className
COc1cc(C)ccc1O	FALSE
CCCCOC(=O)CC	FALSE
O=C(/C=C/c1ccccc1)OC/C=C/c1ccccc1	FALSE
CC1(C)CC(O)CC(C)(C)N1	FALSE
CC(C)(C)C1CCC(=O)CC1	TRUE
